Experiment: qHTS Assay for Lipid Storage Modulators (AID 1519)
Conditions: Drosophila S3 cells, BODIPY lipid droplet/cell ratio, laser cytometry; measured here: cell count channel max response; cells loaded with oleic acid
Procedure: NIH Molecular Libraries Probe Production Centers Network [MLPCN] NIH Chemical Genomics Center [NCGC] Assay Submitter (PI): Beller, Mathias; Max-Planck-Institut fur Biophysikalische Chemie […] We dispensed 4 uL of cells at 1.25 x 10^6 cells/mL into LoBase Aurora COC 1,536-well plates (black walled, clear bottom) with a bottle-valve solenoid-based dispenser (Aurora) to obtain 5,000 cells/well. […] The ratio of the total intensity in PMT channel 1 over total intensity of channel 3 was also calculated. […]
Results filed as inconclusive are left out.
Items are presented alongside their recorded max response.
The response must be a number in % with no trailing unit.

Before answering, review these 5 worked examples.
molecule	measurement-unit	quantitative-readout
NC1(C(=O)O)CCc2cc(C(=O)O)ccc21 (stereo not drawn)	%	-17.6
NCCCNCCCCNCCCN	%	9.8
COc1ccc(-c2ccc(N)[n+](CCCC(=O)O)n2)cc1	%	3.21
CCCC[C@@]1(C2CCCC2)Cc2cc(OCC(=O)O)c(Cl)c(Cl)c2C1=O	%	-23.6
CN1CCCC1CCOC(C)(c1ccccc1)c1ccc(Cl)cc1 (stereo not drawn)	%	-30.3

Field max response (entry `Clc1nccc2c1ccc1ccccc12` ) reads -15.2

What the record says about `COc1ccccc1N1CCN(CCCNc2c(C)c(=O)n(C)c(=O)n2C)CC1` : max response is 38.5

Per the records, this molecule ( `CC(=O)NCCc1c[nH]c2ccc(O)cc12` ) has max response equal to 15.4

Recorded result, `CCCn1c(=O)c2c(ncn2C)n(CCC)c1=O` , max response: -22.4

Notebook: `N[C@H](C(=O)O)[C@H](O)C(=O)O` , max response read as -11.9

The molecule listed as `N=C(N)c1ccccc1` has a reported max response of 9.53

The molecule listed as CN(C)CCC(c1ccc(Br)cc1)c1ccccn1 (stereo not drawn) shows max response equal to 15.4

====

Test: qHTS to identify inhibitors of the type 1 interferon - major histocompatibility complex class I in skeletal muscle: primary screen against the NCATS LOPAC collection (AID 1347405);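 note: human myoblasts with HiBiT tag on endogenous HLA-B stimulated by IFN-beta; lytic HiBiT luminescence reporting HLA-B protein level; % is set by controls: 0 for no effect and ±100 for the full control effect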
Settings: iHSKM muscle cells, IFN-b-induced MHC-I HiBiT luminescence, 24 h; series mostly up to 45.9 µM
Records with an inconclusive call do not appear. Calls of active or inactive are those of the source. Calls come from the whole dose curve; as a rule, active = well fitted inhibition curve with a large enough effect; inconclusive = small, poorly fitted or top-dose-only effect; inactive = flat fitted curve, though single readings scatter.
The reply should name one outcome from active, inactive

These solved cases illustrate the format of a correct answer.
molecule	class-assignment
Cn1c(=O)c2[nH]c(C3CCCC3)nc2n(C)c1=O	inactive
C[C@@H](NCCc1ccc(O)cc1)[C@@H](O)c1ccc(O)cc1	inactive

Turning now to a further molecule:
Tell me the assay call for NCC(O)c1ccc(O)c(O)c1 (stereo unspecified) please. inactive

====

Experiment: High Content Imaging Cell-Based qHTS for Inhibitors of the mTORC1 Signaling Pathway in MEF Cells (AID 2667);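 note: Tsc2-/- p53-/- MEFs stably re-expressing wild-type Tsc2 exposed 24 h; plate controls were DMSO wells for no effect and rapamycin control wells for full effect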
Conditions: series mostly up to 38.3 µM
Records with an inconclusive call do not appear. Active and inactive are the calls of the source. Calls come from the whole dose curve; as a rule, active = well fitted inhibition curve with a large enough effect; inconclusive = small, poorly fitted or top-dose-only effect, or effect the other way; inactive = no such curve, though single readings can be large or run the other way.
value-kind: outcome

smiles-input	result
COc1cc(N)c(Cl)cc1C(=O)OCCN1CCCCC1	inactive
CC(=O)C(C)=O	inactive
NC(=O)CC[C@H](N)C(=O)O	inactive

====

Test: qHTS Assay for Identifying Gametocytocidal Compounds (AID 743244);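 note: % is set by controls: 0 for no effect and ±100 for the full control effect; actives lower the fluorescent signal which means gametocytes are killed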
Details: P. falciparum 3D7 stage III-V gametocytes, alamarBlue, 72 h; stronger effect = lower value
Results filed as inconclusive are left out.
Known max response of a selection of compounds
Answer in %, number only, no unit symbol.

For orientation, consider the following solved cases.
compound	max response / %
NCC(O)C1CCCCCCC1 (stereo unspecified)	18.9
N#Cc1cc2nc(O)c(O)nc2cc1[N+](=O)[O-]	15.6
O=C(O)CCC/C=C\C[C@@H]1[C@@H](/C=C/[C@H](O)C2Cc3ccccc3C2)[C@@H](F)C[C@@H]1O	-7.09
CCC(=O)N1CCN(C(=O)c2ccccc2)CC1	9.08
O=C(O)/C=C/c1cnc[nH]1	8.66

Just so you know, measured max response for `O=C(O)C1=CC(=C(c2ccc(O)c(C(=O)O)c2)c2ccc(O)c(C(=O)O)c2)C=CC1=O` came out at 21.2

====

Assay: Primary qHTS for small molecule stabilizers of the endoplasmic reticulum resident proteome: Secreted ER Calcium Modulated Protein (SERCaMP) assay (AID 1508630); note: % is set by controls: 0 for no effect and ±100 for the full control effect
Conditions: SH-SY5Y GLuc-SERCaMP (Gaussia luciferase released on ER calcium loss) secretion, thapsigargin, luminescence; series mostly up to 38.4 µM
Records with an inconclusive call do not appear. Active and inactive are the calls of the source. Calls come from the whole dose curve; as a rule, active = well fitted inhibition curve with a large enough effect; inconclusive = small, poorly fitted or top-dose-only effect; inactive = no such curve, though single readings can be large or run the other way. Residues, ends and D or L forms follow the SMILES beside them. *: point of attachment. Cbz = O=C(OCc1ccccc1)*
value-kind: outcome

Recorded outcome, per entry:
compound	outcome
N[C@@H](CCC(=O)N[C@H](CSN=O)C(=O)NCC(=O)O)C(=O)O	inactive
Cc1nc(N=Nc2cc(S(=O)(=O)O)c3cc([N+](=O)[O-])cc(S(=O)(=O)O)c3c2)c(COP(=O)(O)O)c(C=O)c1O	inactive
Cn1c(=O)c2c(nc(/C=C/c3cccc(Cl)c3)n2C)n(C)c1=O	inactive
CC(=O)NNC(=O)N1Cc2ccccc2Oc2ccc(Cl)cc21	inactive
[N-]=[N+]=Nc1ccc(C(=O)CSC[C@H](NC(=O)CC[C@H](N)C(=O)O)C(=O)NCC(=O)O)cc1	inactive

outcome for `CCCc1c(-c2ccc(O)cc2)nn(-c2ccc(O)cc2)c1-c1ccc(O)cc1` is inactive

outcome reading for NCC(O)c1ccc(O)c(O)c1 (stereo not given) : inactive

Value of measured outcome for the entry CC(C)[C@H](NC(=O)OCc1ccccc1)C(=O)N[C@H](C=O)Cc1ccccc1 (Cbz-Val-Phe-aldehyde) : inactive

Kindly note the recorded outcome for `Cc1cc2c(cc1Cl)N(C(=O)Nc1ccnc3ccccc13)CC2` , which is inactive

Reported outcome for `CCn1c(=O)[nH]c2cc(Cl)c(Cl)cc21` was inactive

====

Target: Parathyroid hormone/parathyroid hormone-related peptide receptor (Homo sapiens) (UniProt Q03431)
Sequence (Q03431 whole entry, looked up): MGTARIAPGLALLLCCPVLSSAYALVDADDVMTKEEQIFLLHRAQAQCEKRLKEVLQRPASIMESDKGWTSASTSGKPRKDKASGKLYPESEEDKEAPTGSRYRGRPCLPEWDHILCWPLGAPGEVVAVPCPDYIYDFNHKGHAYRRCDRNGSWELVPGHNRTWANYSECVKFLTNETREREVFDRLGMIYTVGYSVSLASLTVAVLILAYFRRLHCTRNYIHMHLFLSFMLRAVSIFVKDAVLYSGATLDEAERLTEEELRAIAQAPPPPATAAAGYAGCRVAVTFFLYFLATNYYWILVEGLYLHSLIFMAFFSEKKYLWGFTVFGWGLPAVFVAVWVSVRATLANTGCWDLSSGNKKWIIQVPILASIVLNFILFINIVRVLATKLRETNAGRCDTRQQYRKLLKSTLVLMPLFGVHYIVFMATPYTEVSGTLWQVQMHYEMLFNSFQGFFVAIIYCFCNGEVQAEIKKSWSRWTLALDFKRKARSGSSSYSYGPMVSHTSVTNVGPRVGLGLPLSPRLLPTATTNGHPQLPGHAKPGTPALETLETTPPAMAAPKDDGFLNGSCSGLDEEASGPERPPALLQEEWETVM
Assay: qHTS for PTHR1 Agonists: Optimization Screen against the NCGC LOPAC library (AID 1347079);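 note: GloSensor cAMP luminescence in HEK-293 GP2 cells expressing human PTHR1 with IBMX; 0% is about no effect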
Conditions: HEK293 GP2 PTHR1 GloSensor cAMP luminescence, 1 h; series mostly up to 57.1 µM
The source made the active and inactive calls. The call rests on the fitted dose curve; in most records, active means well fitted activation curve with a large enough effect; inconclusive means small, poorly fitted or top-dose-only effect; inactive means no such curve, though single readings can be large or run the other way.
Result category, one only: active, inactive

Test call for this molecule, please: CSc1nc(N)c2ncn([C@@H]3O[C@H](COP(=O)(O)OP(=O)(O)O)C(O)[C@H]3O)c2n1 (stereo partly drawn) inactive

State the result this test recorded for `N=S(=O)(O)Cc1noc2ccccc12` . inactive

Hi, sorry to bother you, what did the test record for `O=C(O)c1ccccc1Nc1cccc(OCc2ccc3ccccc3n2)c1` ? inactive

====

Test: HTS Assay for Allosteric Antagonists of the Human D2 Dopamine Receptor: Hit Validation in HTRF (AID 624455);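 note: stable D1 dopamine receptor cell line scored for blocking the D1 response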
Settings: Cells stably expressing D1 dopamine receptor, inhibition mode; series mostly up to 46.1 µM
Inconclusive results are not listed. Active and inactive are the calls of the source. The call rests on the fitted dose curve; in most records, active means well fitted inhibition curve with a large enough effect; inconclusive means small, poorly fitted or top-dose-only effect; inactive means no such curve, though single readings can be large or run the other way.
Use one of these outcomes when replying: active, inactive

Please let me know the test result on file for `COc1cc2c(CCNC(C)=O)c[nH]c2cc1O` . inactive

Hi, sorry to bother you, what did the test record for `O=C(OCCN1CCOCC1)C1(c2ccccc2)CCCCC1` ? inactive

Outcome logged for `CCCCCCC/C=C\CCCCCCCCC(=O)O` in this assay: inactive

Entry NC(Cc1cccc(-c2ccccc2CP(=O)(O)O)c1)C(=O)O (configuration not stated) : call = ? inactive

Recorded test outcome, item `CN(C)S(=O)(=O)c1ccc2c(c1)/C(=C/c1cc3c([nH]1)CCCC3)C(=O)N2` inactive

Record lookup: outcome of this test for `c1ccc(CN2CCC3(CCCc4ccccc43)CC2)cc1` ? inactive

In this assay, the call recorded for C=CC1(C)CC(=O)C2(O)C(C)(O1)C(OC(C)=O)C(O)C1C(C)(C)CCC(O)C12C (configuration not stated) was what? active

Any idea what this test logged for `CC(C)NC[C@H](O)COc1cccc2ccccc12` ? inactive

Entry O=C(O)CCC(=O)N1CCCC1C(=O)O (configuration not stated) : call = ? inactive

Returns: the outcome recorded for `NCCCCN` in this assay. inactive

State the result this test recorded for `CCCC[C@@]1(C2CCCC2)Cc2cc(OCC(=O)O)c(Cl)c(Cl)c2C1=O` . inactive

Please share the test call associated with `O=c1cc(O)cc(/C=C/c2ccc(O)c(O)c2)o1` . inactive

====

Biological target: phosphoglycerate mutase (Leishmania major) (UniProt Q4Q090)
Experiment: qHTS Validation Assay to Find Inhibitors of Phosphoglycerate Mutase (AID 504548);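 note: end-point luminescence from Kinase-GloPlus after the PGAM reaction; % is set by controls: 0 for no effect and ±100 for the full control effect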
Conditions: biochemical enzyme activity; inhibition qHTS; series mostly up to 57.5 µM
Results filed as inconclusive are left out. Calls of active or inactive are those of the source. The call rests on the fitted dose curve; in most records, active means well fitted curve in the direction sought with a large enough effect; inconclusive means small, poorly fitted or top-dose-only effect, or another doubt; inactive means no such curve, though single readings can be large or run the other way.
Use one of these outcomes when replying: active, inactive

Worked examples follow.
molecule	class-assignment
O=C(O)c1ccccc1Nc1cccc(OCc2ccc3ccccc3n2)c1	inactive
NC1(C(=O)O)CCc2cc(C(=O)O)ccc21 (stereo not given)	inactive
NCCS(=O)O	inactive

For this molecule, state the assay outcome: `C=C1C(=O)O[C@@H]2[C@H]3O[C@]3(C)CCC=C(C)CC[C@@H]12` inactive

Record request — test call for `N=C(N)c1ccc(N)cc1` inactive

I'd appreciate the recorded outcome for `CC1CCN(CC[C@H]2CCCN2S(=O)(=O)c2cccc(O)c2)CC1` from this test. inactive

What call does the record list for `CC(=O)NCCc1c[nH]c2ccc(O)cc12` ? inactive

Give the logged outcome of this assay for the following molecule: Nc1nc2c(nc(Br)n2C2OC3COP(=O)(O)O[C@@H]3C2O)c(=O)[nH]1 (stereo not given in full) inactive

Name the outcome recorded for `O=S(=O)(c1cccc2c(Cl)cccc12)N1CCCNCC1` in the assay. inactive

GET /call?item= `Cc1ccc2c(c1)C(N1CCN(C)CC1)=Nc1cccnc1N2` returns the recorded outcome of this test. inactive

Called result for COc1cc(C(O)CO)ccc1O (stereo not given) inactive

For this molecule, state the assay outcome: `CCCCCCC(=O)OC1CC(C)(C)NC(C)(C)C1` inactive

Fill in: this test's call for `Cn1c(=O)[nH]c2ncn(C)c2c1=O` is ___ inactive

// outcome(item) with item = `Oc1ccc(Cn2cc[nH]c2=S)cc1` inactive

Test call for this molecule, please: `CCCC(=O)NCCc1c2n(c3ccc(OC)cc13)CCCc1ccccc1-2` inactive

Dear colleague, could you share the recorded outcome for `C[C@@]1(C2CCCC2)Cc2cc(OCC(=O)O)c(Cl)c(Cl)c2C1=O` when you have a moment? inactive

Identify the outcome logged in this assay for the molecule shown: `C=CCNc1ncnc2ccc(Br)cc12` inactive

Per the records of this test, what outcome belongs to `Clc1nccc2c1ccc1ccccc12` ? inactive

// outcome(item) with item = `O=C(O)c1cccnc1C(=O)O` inactive

// param item: O=C(O)C1CN(CCCP(=O)(O)O)CCN1 (stereo not given) ; yields the recorded call inactive

Recorded test call requested for `c1ccc(C(NCCNC(c2ccccc2)c2ccccc2)c2ccccc2)cc1` inactive

What classification did `Nn1nnc2ccccc21` end up with in this test? inactive
